Tested on: A431
METHOD DESCRIPTION: Cell proliferation assay (CCK8), A431
Type: cell-based
RUN PARAMETERS: Homo sapiens, A-431, cells incubated with compounds for 24 h
ENDPOINT LABEL: IC50 (µM)

See these solved cases before continuing.
MOLECULE: O=C(/C=C/c1ccc2c(c1)OCCCCO2)NCc1ccccc1F [Compound D15]
ENDPOINT LABEL: IC50
OBS VALUE: 17.8

MOLECULE: O=C(O)/C=C/c1ccc2c(c1)OCCCCO2 [C]
ENDPOINT LABEL: IC50
OBS VALUE: 41

MOLECULE: O=C(/C=C/c1ccc2c(c1)OCCCCO2)Nc1ccc(Br)cc1 [Compound D16]
ENDPOINT LABEL: IC50
OBS VALUE: 7.96

MOLECULE: O=C(/C=C/c1ccc2c(c1)OCCCCO2)Nc1ccc(Br)cc1F [Compound D14]
ENDPOINT LABEL: IC50
OBS VALUE: 22.6

1: O=C(/C=C/c1ccc2c(c1)OCCCCO2)Nc1ccc([N+](=O)[O-])cc1 [Compound D1]
2: COc1cc(NC(=O)/C=C/c2ccc3c(c2)OCCCCO3)cc(OC)c1 [Compound D4]
[ask] // pick min by IC50: 1 , 2 Bench note: the answer is the label of the chosen record.
[reply] 2
(2: 10 µM, 1: 16.6 µM)

Values compiled from paper PMC6271756.
